src = ChEMBL document CHEMBL4428080

assay: Oral bioavailability in Sprague-Dawley rat at 3 mg/kg by HPLC method; format: ADME, organism-based; conditions: in vivo
ENDPOINT: bioavailability (%)
Answers are plain numbers, in %.

# return recorded bioavailability for input "COc1ncc(-c2ccc3ncnc(-c4cccc(C(=O)N5CCN(C(C)=O)CC5)c4)c3c2)cc1C#N"
22

====

assay: Equilibrium solubility of the compound at pH 6.8 by high-throughput assay; format: physicochemical; conditions: buffer
Classify as follows. Reported solubility thermodynamic greater than or equal to 600 µM: fulfilled. Reported solubility thermodynamic below: not fulfilled.

Observe how each entry below is paired with its result.
| ITEM_SMILES | ANSWER_LABEL |
| --- | --- |
| COc1ncc(-c2ccc3ncnc(-c4cccc(C(=O)N5CCN(C)CC5)c4)c3c2)cc1C#N | not fulfilled |
| COc1ccc(-c2ccc3ncnc(-c4cccc(C(=O)N5CCN(C(C)=O)CC5)c4)c3c2)cc1OC | fulfilled |
| COc1ccc(-c2ccc3ncnc(-c4cncc(C(=O)N5CCN(C)CC5)c4)c3c2)cn1 | fulfilled |
| COc1ncc(-c2ccc3ncnc(-c4cccc(C(=O)N5CCN(C(C)=O)CC5)c4)c3c2)cc1C#N | not fulfilled |
| COc1ccc(-c2ccc3ncnc(-c4cccc(C(=O)N5CCN(C)CC5)c4)c3c2)cn1 | fulfilled |

Tell me whether solubility thermodynamic is at least 600 µM here: "COc1ccc(-c2ccc3ncnc(-c4cccc(C(=O)N5CCN(C(C)=O)CC5)c4)c3c2)cn1"
fulfilled

API: above_or_equal(metric=solubility thermodynamic, cutoff=600 µM) for item "CN1CCN(C(=O)c2cccc(-c3ncnc4ccc(-c5cnc6ccccc6c5)cc34)c2)CC1"
fulfilled

Reported solubility thermodynamic reaches at least 600 µM for "COc1ncc(-c2ccc3ncnc(-c4cccc(C(=O)N5CCN(C)CC5)c4)c3c2)cc1C(F)(F)F" ?
fulfilled
